Where these numbers come from: patent US10206394B2

test system: Lolium perenne (LOLPE); experiment: Glasshouse assay for herbicidal activity (pre- and post-emergence), percentage phytotoxicity; format: in vivo; conditions: Lolium perenne, pre-emergence, 480 h, 250 g/ha; pre-emergence; 20 DAA; visual assessment (100%=total damage, 0%=no damage); read-out: Pre-emergence herbicidal activity (percentage phytotoxicity) LOLPE PRE
READOUT KIND: pest or weed control at 250 g/ha (%)

# COMPOUND, READOUT KIND, ASSAY VALUE
measured = [
    ("Cc1cc(-c2ncc(F)cc2F)cc(C)c1C1C(=O)CC(CC(=O)NCc2ccc(F)cc2)C1=O (stereo not drawn)", "pest or weed control at 250 g/ha", 100),
    ("COCCCNC(=O)CC1CC(=O)C(c2c(C)cc(-c3ncc(Cl)cc3F)cc2C)C1=O (stereo not drawn)", "pest or weed control at 250 g/ha", 100),
    ("Cc1cc(-c2cc(C#N)c(F)cn2)cc(C)c1C1C(=O)CC(CC(=O)NC(C)(C)C)C1=O (stereo not drawn)", "pest or weed control at 250 g/ha", 80),
    ("Cc1cc(-c2ncc(Cl)cc2F)cc(C)c1C1C(=O)CC(CC(=O)NCC2CC2C(F)F)C1=O (stereo not drawn)", "pest or weed control at 250 g/ha", 100),
    ("C=C(F)CNC(=O)CC1CC(=O)C(c2c(C)cc(C)cc2C)C1=O (stereo not drawn)", "pest or weed control at 250 g/ha", 100),
    ("Cc1cc(-c2ncc(Cl)cc2F)cc(C)c1C1C(=O)CC(CC(=O)NCc2cccc(F)c2)C1=O (stereo not drawn)", "pest or weed control at 250 g/ha", 90),
    ("Cc1cc(-c2nc(C#N)cs2)cc(C)c1C1C(=O)CC(CC(=O)NC(C)(C)C)C1=O (stereo not drawn)", "pest or weed control at 250 g/ha", 70),
    ("C=CC1(NC(=O)CC2CC(=O)C(c3c(C)cc(C)cc3C)C2=O)CC1 (stereo not drawn)", "pest or weed control at 250 g/ha", 90),
    ("CCc1cc(-n2cc(Cl)cn2)cc(C)c1C1C(=O)CC(CC(=O)NC(C)(C)C)C1=O (stereo not drawn)", "pest or weed control at 250 g/ha", 100),
    ("Cc1cc(C)c(C2C(=O)CC(CC(=O)Nc3ccc(F)cc3F)C2=O)c(C)c1 (stereo not drawn)", "pest or weed control at 250 g/ha", 90),
    ("C/C=C/CNC(=O)CC1CC(=O)C(c2c(C)cc(C)cc2C)C1=O (stereo not drawn)", "pest or weed control at 250 g/ha", 100),
    ("C#CC(C)NC(=O)CC1CC(=O)C(c2c(C)cc(C)cc2C)C1=O (stereo not drawn)", "pest or weed control at 250 g/ha", 80),
]

====

tested on: Avena fatua (AVEFA); assay: Glasshouse assay for herbicidal activity (pre- and post-emergence), percentage phytotoxicity; format: in vivo; settings: Avena fatua, pre-emergence, 480 h, Rate 250 g/ha; pre-emergence; assessed visually 20 DAA; 100%=total damage, 0%=no damage; read-out: Pre-emergence herbicidal activity (percentage phytotoxicity) AVEFA PRE
The following molecules are listed with their measured pest or weed control at 250 g/ha values.

# MOLECULE, STUDY TARGET, pest or weed control at 250 g/ha [%]
records = [
    ("Cc1cc(C)c(C2C(=O)CC(CC(=O)NCc3ncc(C(F)(F)F)cc3Cl)C2=O)c(C)c1 (stereo not drawn)", "Avena fatua (AVEFA)", 50),
    ("Cc1cc(-c2ncc(F)cn2)cc(C)c1C1C(=O)CC(CC(=O)NCc2cccc(C(F)(F)F)c2)C1=O (stereo not drawn)", "Avena fatua (AVEFA)", 100),
    ("Cc1cc(C)c(C2C(=O)CC(C(C)C(=O)NCc3cccs3)C2=O)c(C)c1 (stereo not drawn)", "Avena fatua (AVEFA)", 0),
]
